Listed here: compounds with reported Ki for Adenosine receptor A2a (Homo sapiens).
# unit: nM | format: bare number

Here's what some known entries look like.
CCCn1c(=O)c2[nH]c(-c3cnn(Cc4cccc(C(F)(F)F)c4)c3)nc2n(CCC)c1=O 400
CCCn1c(=O)c2nc(-c3cnn(Cc4ccc(F)c(F)c4)c3)[nH]c2n(CCC)c1=O 280
CCCn1c(=O)c2[nH]c(-c3cnn(Cc4ccccc4F)c3)nc2n(CCC)c1=O 60
CCCCn1c(=O)c2[nH]c(-c3cnn(Cc4ccccc4)c3)nc2n(CCCC)c1=O 890

Then this compound:
// query Need Ki, item CCCn1c(=O)c2[nH]c(-c3cnn(Cc4ccccc4OC)c3)nc2n(CCC)c1=O
// result 140

---

Overview of recorded Ratio Ki for various compounds
Biological target: Adenosine receptors; A1 & A2b (Homo sapiens) (UniProt P30542+P29275)
Test: Selectivity for human adenosine A2b receptor over adenosine A1 receptor
Format: protein assay
Answer with a bare number; do not write a unit.

Here's what some known entries look like.
Cn1c(=O)c2nc(-c3cnn(Cc4ccccc4)c3)[nH]c2n(C)c1=O 2
CC(C)Cn1c(=O)c2nc(-c3cnn(Cc4cccc(C(F)(F)F)c4)c3)[nH]c2n(CC(C)C)c1=O 10
CCCn1c(=O)c2nc(-c3cnn(-c4ccccc4)c3)[nH]c2n(CCC)c1=O 2

// query Need Ratio Ki, item CCCn1c(=O)c2nc(-c3cnn(Cc4ccc(C(F)(F)F)cc4)c3)[nH]c2n(CCC)c1=O
// result 2

// query Note, next up: CCCn1c(=O)c2nc(-c3cnn(Cc4ccc(C)cc4)c3)[nH]c2n(CCC)c1=O
// result 1

// query Note, next up: CCCn1c(=O)c2nc(-c3cnn(Cc4cc(Cl)ccc4Cl)c3)[nH]c2n(CCC)c1=O
// result 6

---

Listed here: compounds with reported pKi for Adenosine receptor A1 (Homo sapiens, UniProt P30542).
Remember the convention: pKi equals -log10 of concentration in molar.

CCCn1c(=O)c2[nH]c(-c3cnn(Cc4cccc(C(F)(F)F)c4)c3)nc2n(CCC)c1=O 6.77
CCCCn1c(=O)c2[nH]c(-c3cnn(Cc4ccccc4)c3)nc2n(CCCC)c1=O 5.85
CCCn1c(=O)c2[nH]c(-c3cnn(Cc4ccc(C)cc4)c3)nc2n(CCC)c1=O 7.42
CCCn1c(=O)c2nc(-c3cnn(CCc4ccccc4)c3)[nH]c2n(CCC)c1=O 7.77
CCCn1c(=O)c2nc(-c3cnn(Cc4cccc(Cl)c4)c3)[nH]c2n(CCC)c1=O 7.51
CCCn1c(=O)c2[nH]c(-c3cnn(-c4ccccc4)c3)nc2n(CCC)c1=O 6.11
CCCn1c(=O)c2[nH]c(-c3cnn(Cc4ccccc4)c3)nc2n(CCC)c1=O 7.12
CCCn1c(=O)c2[nH]c(-c3cnn(Cc4cccc(C)c4F)c3)nc2n(CCC)c1=O 6.41
CCn1c(=O)c2nc(-c3cnn(Cc4cccc(F)c4)c3)[nH]c2n(CC)c1=O 6.42
CCCn1c(=O)c2nc(-c3cnn(Cc4ccc(C(F)(F)F)cc4)c3)[nH]c2n(CCC)c1=O 7.39

// query Query pKi on Adenosine receptor A1 (Homo sapiens, UniProt P30542) for CCCn1c(=O)c2[nH]c(-c3cnn(Cc4ccc(OC)cc4)c3)nc2n(CCC)c1=O
Sequence (P30542 whole entry): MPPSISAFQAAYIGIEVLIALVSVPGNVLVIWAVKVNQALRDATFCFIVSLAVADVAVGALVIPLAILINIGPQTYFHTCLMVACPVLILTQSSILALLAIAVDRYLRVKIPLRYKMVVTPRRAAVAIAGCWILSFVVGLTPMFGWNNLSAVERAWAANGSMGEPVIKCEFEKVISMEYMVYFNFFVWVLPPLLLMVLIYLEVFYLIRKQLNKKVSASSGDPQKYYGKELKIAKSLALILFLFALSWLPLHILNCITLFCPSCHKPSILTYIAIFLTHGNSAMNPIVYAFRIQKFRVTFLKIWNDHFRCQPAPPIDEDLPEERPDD
// result 7.15

// query Note, next up: CCCn1c(=O)[nH]c(=O)c2[nH]cnc21
// result 4.38

// query Note, next up: Cn1c(=O)c2nc(-c3cnn(Cc4cccc(C(F)(F)F)c4)c3)[nH]c2n(C)c1=O
// result 6.00

// query Note, next up: CCCn1c(=O)c2[nH]c(-c3cnn(Cc4cc(Cl)ccc4Cl)c3)nc2n(CCC)c1=O
// result 6.72

// query Note, next up: CCCn1c(=O)c2[nH]c(-c3cnn(Cc4cccc(F)c4)c3)nc2n(CCC)c1=O
// result 6.77

// query Note, next up: CCCn1c(=O)c2[nH]c(-c3cnn(Cc4ccccc4OC)c3)nc2n(CCC)c1=O
// result 7.23

Recorded values, source ChEMBL document CHEMBL1148648.
